Attribution: PubChem BioAssay (NCI)

Assay: NCI Yeast Anticancer Drug Screen. Data for the rad52 strain (AID 147);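 note: 0% = growth of vehicle-treated control cultures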
Conditions: S. cerevisiae rad52 mutant growth inhibition; at 100.0 µM
Experimental: Growth inhibition of yeast strains with defined genetic alterations is measured as a screen for potential anti-cancer activity. Selected strains with alterations in DNA damage repair or cell cycle control were exposed to compounds and growth inhibition was measured relative to vehicle treated controls. The strain used in this assay is rad52
Compounds without any hit were thinned out: in the full panel of roughly 79,000, 15% have a hit. Active and inactive are the calls of the source. Cut-off read from the data, not from the text of the source: active = growth inhibition above about 70%; inactive = the rest.
Select the correct class. Options are active, inactive and nothing else.

These recorded examples may help you get a feel for the data.
| COMPOUND | CLASS_ASSIGNMENT |
| --- | --- |
| CCCc1cc(C(=O)OCC)cc(CCC)c1O | active |
| CC(C)c1ccccc1NC(=O)/C(Cl)=C(\Cl)C(=O)O | active |

// query Called result for `Cc1nc(-c2ccccc2)c(-c2ccccc2)s1`
// result active

// query Called result for `c1ccc2c(c1)sc1nc3ccncc3nc12`
// result active

// query Called result for CCCCCCCCCCCCCCCCCCOCC(O)COP(=O)(O)OCC1OC(n2cc(F)c(=O)[nH]c2=O)CC1O (configuration not stated)
// result active

// query Called result for `Cn1c(=O)c(-c2ccccc2)c(N=[N+]=[N-])c2ccccc21`
// result active

// query Called result for `CCC/C(Cl)=N\OC(=O)Nc1cccc(C(F)(F)F)c1`
// result inactive

* * *

experiment: NCI Yeast Anticancer Drug Screen. Data for the wt1 strain (AID 149);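 note: 0% = growth of vehicle-treated wt1 cultures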; conditions: S. cerevisiae wt1 strain (SPY 50644) growth inhibition; at 100.0 µM; hits give high values
Compounds without any hit were thinned out: in the full panel of roughly 79,000, 15% have a hit.
A collection of compounds and their measured growth inhibition
Number only, in %; omit the unit.

| COMPOUND | growth inhibition (%) |
| --- | --- |
| CCCCCCCCCCCCCCC(C(=O)[O-])[n+]1ccccc1 (stereo unspecified) | 6 |
| Nc1nc(-c2cccnc2)cc(-c2cc(-c3cccnc3)nc(N)n2)n1 | -2 |
| N#CC(C(=O)Nc1ccccc1)C1=C(Cl)C(=O)c2ccccc2C1=O (stereo unspecified) | 96 |
| O=C(N=Nc1cc(Cl)ccc1Cl)NNc1cc(Cl)ccc1Cl | 4 |
| CCCCCCCCCCC1CCC(=O)O1 (stereo unspecified) | 98 |
| O=C(O)CNc1ccc(Cl)c(Cl)c1 | 98 |
| CC(CC(C)(C)[N+](C)(C)C)[N+](C)(C)C (stereo unspecified) | 0 |
| C[Si](C)(C)CNC(=O)OCc1ccccc1 | -3 |
| OCC(Cn1cncn1)(c1ccc(F)cc1F)n1cncn1 (stereo unspecified) | 42 |
| CC(=O)OCCOCNC(=S)N/N=C(\C)c1cnccn1 | 69 |

The compound COc1ccccc1C(=O)OCC1CCCN2CCCCC12 (stereo unspecified) showed growth inhibition equal to 98

* * *

assay: NCI Yeast Anticancer Drug Screen. Data for the rad18 strain (AID 177); conditions: S. cerevisiae rad18 mutant growth inhibition; at 33.0 µM; hits give high values
About 79,000 compounds went through this panel and 15% of them were active in at least one assay; those are over-represented in the sample as a whole.
A collection of compounds and their measured growth inhibition
Number only, in %; omit the unit.

Before answering, review these 5 worked examples.
| COMPOUND | READING_UNIT | QUANTITATIVE_READOUT |
| --- | --- | --- |
| N#Cc1ccc(C2NN=CC23C(=O)c2ccccc2OC3c2ccccc2)cc1 (stereo not drawn) | % | -16 |
| OC1CCCc2c1cc1ccc3cccc4ccc2c1c34 (stereo not drawn) | % | 98 |
| Fc1ccc(NC(=S)SCc2ccc3c(c2)OCO3)cc1F | % | 100 |
| c1ccc2c(c1)sc1cc3ccncc3cc12 | % | 22 |
| Cc1c(C(Cc2ccccc2N(C)C(=O)/C=C\C(=O)O)c2c[nH]c3ccccc23)c2ccccc2n1C (stereo not drawn) | % | 0 |

The compound `NC1=NS(=O)(=O)N=C(N)C1=Cc1ccc([N+](=O)[O-])o1` showed growth inhibition equal to 89

The compound `CCCCCCCCCCC(=O)Cl` showed growth inhibition equal to 9

The compound CC(Br)C(=O)c1ccc2cc(Br)c3ccccc3c2c1 (stereo not drawn) showed growth inhibition equal to 18

The compound COC1=CC(=O)C2C(C1=O)C(c1ccc(Cl)cc1)[C@@H]2C (stereo partly drawn) showed growth inhibition equal to 99

The compound CC1(Cl)CC(O)C2(CC1Br)C1(C)OC1C1OC1(Br)C2(C)C (stereo not drawn) showed growth inhibition equal to 76

The compound `O=C1Nc2ccc(Cl)c(I)c2C1=O` showed growth inhibition equal to 41

The compound N#CC(C(=O)Nc1ccccc1)C1=C(Cl)C(=O)c2ccccc2C1=O (stereo not drawn) showed growth inhibition equal to 98

The compound `Cc1ccc(CCC2=CCCc3c2ccc2ccccc32)cc1` showed growth inhibition equal to -2

The compound CCCCN1C(=O)N(c2ccc(OCC)cc2)C2N(CCCC)C1C(C)(C)C2(C)C (stereo not drawn) showed growth inhibition equal to 74

The compound CCCCCCCCCCCCCCCCCCOCC(O)COP(=O)(O)OCC1OC(n2cc(F)c(=O)[nH]c2=O)CC1O (stereo not drawn) showed growth inhibition equal to 97

The compound COc1cc(C2c3cc4c(cc3OC(Nc3ccccc3)C2C)OCO4)cc(OC)c1O (stereo not drawn) showed growth inhibition equal to 1

The compound OCC1OC(OCC(O)C(O)C(O)C(/C=N/Nc2ccccc2)=N/Nc2ccccc2)C(O)C(O)C1O (stereo not drawn) showed growth inhibition equal to 39

The compound `CO[C@H]1C[C@](C)(O)Cc2cc3c(c(O)c21)C(=O)c1c(O)cc2c(c1C3=O)O[C@@H]1O[C@@]2(C)[C@H](O)[C@@H](N(C)C)[C@@H]1O` showed growth inhibition equal to -27

The compound COc1cc(C2SCC(=O)N2c2nnc(C(F)(F)F)s2)cc(OC)c1OC (stereo not drawn) showed growth inhibition equal to -2

The compound CC(CC(C)(C)[N+](C)(C)C)[N+](C)(C)C (stereo not drawn) showed growth inhibition equal to 15

The compound `CC(C)c1cc(C(C)C)c(O)c(C([O-])[O-])c1.CC(C)c1cc(C(C)C)c(O)c(C([O-])[O-])c1.CC(C)c1cc(C(C)C)c(O)c(C([OH2+])[OH2+])c1.CC(C)c1cc(C(C)C)c(O)c(C([OH2+])[OH2+])c1.[Cu+2].[Cu+2].[OH3+].[OH3+]` showed growth inhibition equal to 57

The compound `CNC(=O)OCc1c(COC(=O)NC)c(-c2ccc(Cl)c(Cl)c2)n2c1CCC2` showed growth inhibition equal to 94

The compound `O=[N+]([O-])c1ccc(=S)[nH]c1` showed growth inhibition equal to 40
